# Test system: SEM cells
# assay details: cell viability relative to DMSO control; higher = less cytotoxic
# study conditions: RPMI 5 mM glucose + 10% FBS; 48 h; 0.569 µM
measurement kind: cell viability
Numeric answer plus unit only.

Consider the compound C[C@@]12C(=O)OC(=O)[C@@]1(C)C1CCC2O1 tested on SEM cells; state its cell viability.
124%

Consider the compound C[C@]12COC(=O)C[C@@H]1CC[C@@H]1[C@@H]2CC[C@@]2(C)[C@H]1CC[C@]2(C)O tested on SEM cells; state its cell viability.
105%

Consider the compound CC[C@]12CC[C@H]3[C@@H](CCC/4=C/C(=O)CC[C@H]34)[C@@H]1\C=C/[C@@]2(O)C#C tested on SEM cells; state its cell viability.
106%

Consider the compound Cc1cnn(C)c1C(=O)Nc1cc(Nc2ccc3c(/C=C/c4ccccn4)n[nH]c3c2)ccc1F tested on SEM cells; state its cell viability.
67%

Consider the compound CCOC(=O)N1CCN(/[N+]([O-])=N/Oc2ccc([N+](=O)[O-])cc2C#N)CC1 tested on SEM cells; state its cell viability.
114%

Consider the compound CCOC(=O)c1ccc(OC(=O)CCCCCNC(=N)N)cc1 tested on SEM cells; state its cell viability.
141%

New cases:
Consider the compound C[N]1C=C(C=N1)C2=C3\C=N/NC(=O)C4=C3C(=CC(=C4)NC(=O)[C@H](N)C5CCCCC5)[NH]2 tested on SEM cells; state its cell viability.
81.3%

Consider the compound CCCCC(=O)O[C@]1(C(=O)CO)[C@H](C)C[C@H]2[C@@H]3CCC4=CC(=O)C=C[C@]4(C)[C@@]3(F)[C@@H](O)C[C@@]21C tested on SEM cells; state its cell viability.
84.3%

====

# System: P12-Ichikawa
# assay details: cell viability relative to DMSO control; higher = less cytotoxic
# study conditions: RPMI 5 mM glucose + 10% FBS; 48 h; 15.4 µM
Field 'label' (enum: True / False). Set to True when cell viability is strictly under 50%; else False.

Check out these entries, answers already filled in.
I'd appreciate it if you could check whether FC1=CC=C(C=C1)N2/C=C\C=C(C(=O)NC3=CC=C(OC4=C5C=C[NH]C5=NC=C4)C(=C3)F)/C2=O has cell viability smaller than 50%.
False

I'd appreciate it if you could check whether O=C(O)Cn1nnc(-c2cc(N3CCC(Oc4cc(F)ccc4Br)CC3)no2)n1 has cell viability smaller than 50%.
True

I'd appreciate it if you could check whether CNc1nc(Nc2ccc(C(=O)N3CCOCC3)cc2OC)ncc1Cl has cell viability smaller than 50%.
False

New cases:
I'd appreciate it if you could check whether CC(C)OC(=O)/C1=C/N(CC(C)(C)C2=C1[NH]C3=CC=CC=C23)C(=O)C4=CC=C(F)C(=C4)F has cell viability smaller than 50%.
False

I'd appreciate it if you could check whether CC1(C)O[C@@H]2C[C@H]3[C@@H]4C[C@H](F)C5=CC(=O)C=C[C@]5(C)[C@@]4(F)[C@@H](O)C[C@]3(C)[C@]2(C(=O)CO)O1 has cell viability smaller than 50%.
True

====

# System: P12-Ichikawa
# assay details: cell viability relative to DMSO control; higher = less cytotoxic
# study conditions: HPLM + 10% dialyzed FBS; 48 h; 15.4 µM
measurement kind: cell viability (%)
State just the number; it will be interpreted in %.

Supply measured cell viability of CN(C)C1CCN(C(=O)c2ccc(NC(=O)Nc3nc(N4CCOCC4)nc(N4CCOCC4)n3)cc2)CC1 in your reply.
34.3

Supply measured cell viability of c1ccc2[nH]c(-c3cscn3)nc2c1 in your reply.
86

Supply measured cell viability of Cc1nn(Cc2ccccc2Cl)c(C)c1CN(C)CC(O)COc1ccc(Cl)cc1 (stereo not given) in your reply.
95.1

Supply measured cell viability of CNCCCC12CCC(c3ccccc31)c1ccccc12 in your reply.
85.8

Supply measured cell viability of CCC[S+]([O-])c1ccc2[nH]c(NC(=O)OC)nc2c1 (stereo not given) in your reply.
25.3

====

# Test system: P12-Ichikawa
# assay details: cell viability relative to DMSO control; higher = less cytotoxic
# study conditions: RPMI 5 mM glucose + 10% dialyzed FBS; 48 h; 46.1 µM
Reported cell viability by item:
State just the number; it will be interpreted in %.

Supply measured cell viability of CNC(=O)c1ccc(N2C(=S)N(c3cnc(C#N)c(C(F)(F)F)c3)C(=O)C23CCC3)cc1F in your reply.
101

# ---- query compound ----
Supply measured cell viability of CC(C)(C)OC(=O)N[C@H]1CCCCC/C=C\[C@@H]2C[C@@]2(C(=O)N[S+](=O)([O-])C2CC2)NC(=O)[C@@H]2C[C@@H](OC(=O)N3Cc4cccc(F)c4C3)CN2C1=O in your reply.
80.5

====

# Test system: NOMO1
# assay details: cell viability relative to DMSO control; higher = less cytotoxic
# study conditions: HPLM + 10% dialyzed FBS; 48 h; 5.12 µM
Reported cell viability by item:
State just the number; it will be interpreted in %.

Solved entries (count: 3):
Supply measured cell viability of CCOC(=O)N1CCN(/[N+]([O-])=N/Oc2ccc([N+](=O)[O-])cc2C#N)CC1 in your reply.
39.5

Supply measured cell viability of COc1cc(F)c(F)c(Nc2ccc(I)cc2F)c1N[S+](=O)([O-])C1(C[C@H](O)CO)CC1 in your reply.
99.3

Supply measured cell viability of C[N]1C=C(C=N1)C2=C3\C=N/NC(=O)C4=C3C(=CC(=C4)NC(=O)[C@H](N)C5CCCCC5)[NH]2 in your reply.
72.6

New cases:
Supply measured cell viability of Cc1nc2cnc3ccc(C#Cc4cccnc4)cc3c2n1-c1ccc(C(C)(C)C#N)cc1 in your reply.
43.3

====

Reported cell viability by item:
# System: SEM cells
# assay details: cell viability relative to DMSO control; higher = less cytotoxic
# study conditions: HPLM + 10% dialyzed FBS; 48 h; 5.12 µM
State just the number; it will be interpreted in %.

Solved entries (count: 6):
Supply measured cell viability of CCOC(=O)c1ccc(OC(=O)CCCCCNC(=N)N)cc1 in your reply.
120

Supply measured cell viability of O=C(Nc1cc(Cl)cc2c1[nH]c1cnccc12)c1cccnc1 in your reply.
133

Supply measured cell viability of Cc1nc2cnc3ccc(C#Cc4cccnc4)cc3c2n1-c1ccc(C(C)(C)C#N)cc1 in your reply.
32.3

Supply measured cell viability of COc1ccc([C@@H]2CC(=O)c3c(O)cc(O[C@@H]4O[C@H](CO[C@@H]5O[C@@H](C)[C@H](O)[C@@H](O)[C@H]5O)[C@@H](O)[C@H](O)[C@H]4O)cc3O2)cc1O in your reply.
112

Supply measured cell viability of COc1cc(F)c(F)c(Nc2ccc(I)cc2F)c1N[S+](=O)([O-])C1(C[C@H](O)CO)CC1 in your reply.
117

Supply measured cell viability of C[C@]12CC[C@@H]3c4ccc(O)cc4CC[C@H]3[C@@H]1[C@@H](O)[C@@H](O)[C@@H]2O in your reply.
125

New cases:
Supply measured cell viability of CN(C)C1CCN(C(=O)c2ccc(NC(=O)Nc3nc(N4CCOCC4)nc(N4CCOCC4)n3)cc2)CC1 in your reply.
30.9

Supply measured cell viability of CC(C)c1ccc2c(c1)c(SC(C)(C)C)c(CC(C)(C)C(=O)[O-])n2Cc1ccc(Cl)cc1 in your reply.
106

====

Reported cell viability by item:
# Test system: P12-Ichikawa
# assay details: cell viability relative to DMSO control; higher = less cytotoxic
# study conditions: RPMI 5 mM glucose + 10% dialyzed FBS; 48 h; 0.0211 µM
State just the number; it will be interpreted in %.

Solved entries (count: 8):
Consider the compound C[C@H]1COC2=C3N1\C=C(C(O)=O)/C(=O)C3=CC(=C2N4CCN(C)CC4)F tested on P12-Ichikawa; state its cell viability.
118

Consider the compound COC(=O)Nc1cc(Nc2cc(NC3CC3)c3ncc(C#N)n3n2)c(Cl)c(N2CCN(C)CC2)c1 tested on P12-Ichikawa; state its cell viability.
108

Consider the compound CNCCCC12CCC(c3ccccc31)c1ccccc12 tested on P12-Ichikawa; state its cell viability.
101

Consider the compound CN(C)[S+](=O)([O-])c1ccc2c(c1)C(=Cc1cc3c([nH]1)CCCC3)C(=O)N2 tested on P12-Ichikawa; state its cell viability.
116

Consider the compound O=C(O)CCC1CCC(c2cc(F)ccc2F)([S+](=O)([O-])c2ccc(Cl)cc2)CC1 (configuration not stated) tested on P12-Ichikawa; state its cell viability.
123

Consider the compound CC[C@]12CC[C@H]3[C@@H](CCC/4=C/C(=O)CC[C@H]34)[C@@H]1\C=C/[C@@]2(O)C#C tested on P12-Ichikawa; state its cell viability.
115

Consider the compound C[C@]12CC[C@H]3[C@@H](CC[C@H]4NC(=O)\C=C/[C@]34C)[C@@H]1CC[C@@H]2C(=O)NC5=CC(=CC=C5C(F)(F)F)C(F)(F)F tested on P12-Ichikawa; state its cell viability.
108

Consider the compound CC(C)c1noc(N2CCC(COc3ccc(-c4ccc([S+](C)(=O)[O-])cc4)nc3)CC2)n1 tested on P12-Ichikawa; state its cell viability.
108

New cases:
Consider the compound C[C@]12COC(=O)C[C@@H]1CC[C@@H]1[C@@H]2CC[C@@]2(C)[C@H]1CC[C@]2(C)O tested on P12-Ichikawa; state its cell viability.
104

Consider the compound CC(C)(C)NC(=O)Nc1cccc(Nc2ncc(F)c(NC(C)(C)CO)n2)c1 tested on P12-Ichikawa; state its cell viability.
116

Consider the compound O=C1[C@H](Cc2ccc(O)cc2)N2C(=O)CCN(C(=O)NCc3ccccc3)[C@H]2CN1Cc1cccc2ccccc12 tested on P12-Ichikawa; state its cell viability.
79.5

Consider the compound CN[C@H]1CCC2=CC(=C(OC)C(=C2C/3=C/C=C(OC)\C(=O)/C=C13)OC)OC tested on P12-Ichikawa; state its cell viability.
21.1

Consider the compound Cc1coc2c1C(=O)C(=O)c1c-2ccc2c(C)cccc12 tested on P12-Ichikawa; state its cell viability.
117

Consider the compound CC1(C)O[C@@H]2C[C@H]3[C@@H]4C[C@H](F)C5=CC(=O)C=C[C@]5(C)[C@@]4(F)[C@@H](O)C[C@]3(C)[C@]2(C(=O)CO)O1 tested on P12-Ichikawa; state its cell viability.
67.9

Consider the compound CC(C)OC(=O)/C1=C/N(CC(C)(C)C2=C1[NH]C3=CC=CC=C23)C(=O)C4=CC=C(F)C(=C4)F tested on P12-Ichikawa; state its cell viability.
85.2

Consider the compound CC(C)N[C@@H]1CCn2c(=O)[nH]c3cccc(c32)[C@H]1O tested on P12-Ichikawa; state its cell viability.
114

Consider the compound CC1CNc2c(cccc2[S+](=O)([O-])N[C@@H](CCCNC(=N)N)C(=O)N2CC[C@@H](C)C[C@@H]2C(=O)O)C1 (some centres not stated) tested on P12-Ichikawa; state its cell viability.
101

Consider the compound COc1ccc([C@@H]2CC(=O)c3c(O)cc(O[C@@H]4O[C@H](CO[C@@H]5O[C@@H](C)[C@H](O)[C@@H](O)[C@H]5O)[C@@H](O)[C@H](O)[C@H]4O)cc3O2)cc1O tested on P12-Ichikawa; state its cell viability.
111

Consider the compound C[S+](=O)([O-])Nc1ccc([N+](=O)[O-])cc1Oc1ccccc1 tested on P12-Ichikawa; state its cell viability.
113

Consider the compound COc1ccc(-c2ccc3ncc4c(c3c2)n(-c2ccc(N3CCNCC3)c(C(F)(F)F)c2)c(=O)n4C)cn1 tested on P12-Ichikawa; state its cell viability.
65.8

Consider the compound CN[C@@H](C)[C@H]1[C@H](O)C[C@@]2(C)[C@@H]3CC[C@H]4C(C)(C)[C@@H](NC)CC[C@@]45C[C@@]35CC[C@]12C tested on P12-Ichikawa; state its cell viability.
90.1

Consider the compound CNC(=O)c1ccc2cc(C3(O)CCn4cncc43)ccc2c1 (configuration not stated) tested on P12-Ichikawa; state its cell viability.
125
